The reported measurements were obtained from patent US20250320397A1.

- MEASUREMENT PROTOCOL: Boiling point determination (Example 2)
- Assay type: physicochemical
- CONDITIONS: Table 5
Catalogue of BP values
Just the number plus its unit, please.

- COMPOUND: "F/C=C(\\F)C(F)(F)C(F)F [Compound 3, (Z)-1,2,3,3,4,4-hexafluorobut-1-ene]"
  BP: "40.4 °C"
- COMPOUND: "F/C(=C(\\F)C(F)F)C(F)F [Compound 1, (Z)-1,1,2,3,4,4-hexafluorobut-2-ene]"
  BP: "58.2 °C"
- COMPOUND: "F/C(=C(/F)C(F)F)C(F)F [Compound 2, (E)-1,1,2,3,4,4-hexafluorobut-2-ene]"
  BP: "51.7 °C"

We now examine a further compound.
Task: So what's the measured BP for this one? F/C=C(/F)C(F)(F)C(F)F [Compound 4, (E)-1,2,3,3,4,4-hexafluorobut-1-ene]
Output: 45.3 °C
